Test system: L1210 leukemia ip in BDF1 mice, survival T/C
Test: NCI In Vivo Anticancer Drug Screen. Data for tumor model L1210 Leukemia (intraperitoneal) in B6D2F1 (BDF1) mice
Conditions: endpoint: mean survival time; dose: 200.0 mg/kg/injection; schedule: Q01DX009 (ip); vehicle: Klucel (hydroxypropylcellulose) (HPC); higher = longer survival
Inconclusive results and toxic doses are left out.
In this section we review reported T/C values for a set of molecules.

MOLECULE | T/C
CCC1(c2ccccc2)NC(=O)N(C)C1=O (stereo not drawn) | 110 % of control
Cc1cc(N(CCCl)CCCl)ccc1C=Nc1ccccc1C(=O)O | 120 % of control

# input What measured T/C goes with `COc1ccc(OC(=O)Nc2cc(C)ccc2C)cc1` ?
# output 90 % of control

# input Consider the molecule shown here: `COc1ccc(C(=O)NC(=S)Nc2ccccc2F)cc1` What is its recorded T/C?
# output 90 % of control

# input Recorded T/C for `CSc1ccc(OC(=O)Nc2ccccc2[N+](=O)[O-])cc1C` , please?
# output 94 % of control

----------
Test system: L1210 leukemia ip in BDF1 mice, survival T/C
Assay: NCI In Vivo Anticancer Drug Screen. Data for tumor model L1210 Leukemia (intraperitoneal) in B6D2F1 (BDF1) mice
Settings: endpoint: mean survival time; dose: 200.0 mg/kg/injection; schedule: Q04DX002 (ip); vehicle: Klucel (hydroxypropylcellulose) (HPC); higher = longer survival
Toxic doses and inconclusive results are not listed.
Overview of recorded T/C for various compounds

// solved cases for T/C follow
COMPOUND | RECORDED VALUE
S=c1nc[nH]c2c1ncn2Cc1ccc(Cl)c(Cl)c1 | 94 % of control
C1=CC2C1C1(Cc3ccccc3)N=NC2(Cc2ccccc2)C2C=CC21 (configuration not stated) | 94 % of control
Cc1ccccc1Nc1nc(N)nc2nc(N)c(C(N)=O)nc12 | 92 % of control
COC1OC(CO)C(NC(N)=O)C1O (configuration not stated) | 105 % of control
CCCCCCCCCCCCCCCCCCNC(=O)Nc1ccc(OC)cc1 | 104 % of control

Now for another entry.
# input Requested field: T/C. Item: Cc1ccc(S(=O)(=O)OCC2C(COS(=O)(=O)c3ccc(C)cc3)C3C=CC2C32CC2)cc1 (configuration not stated)
# output 110 % of control

----------
Tested on: L1210 leukemia ip in BDF1 mice, survival T/C
Assay: NCI In Vivo Anticancer Drug Screen. Data for tumor model L1210 Leukemia (intraperitoneal) in B6D2F1 (BDF1) mice
Details: endpoint: mean survival time; dose: 200.0 mg/kg/injection; schedule: Q01DX001 (ip); vehicle: saline; higher = longer survival
Inconclusive results and toxic doses are left out. Square brackets hold non-standard residues; d marks the D form. Peptide text beside a SMILES is read from it. * marks the point of attachment. ξ: configuration not given here. Pentanoyl = CCCCC(=O)*; ξP = O=C(O)C1CCCN1; Ava = NCCCCC(=O)O
Measured T/C, listed per entry for reference.

Some compounds with known T/C results, for comparison:
COMPOUND | SYSTEM UNDER TEST | RECORDED VALUE
O=C(O)C(Cc1ccc(O)cc1)NC(=O)N(c1ccccc1)c1ccccc1 (stereo not given) | L1210 leukemia ip in BDF1 mice, survival T/C | 103 % of control
CCOC(=O)NC1CCc2ccccc21 (stereo not given) | L1210 leukemia ip in BDF1 mice, survival T/C | 104 % of control
O=C(O)/C=C/c1ccccc1Br | L1210 leukemia ip in BDF1 mice, survival T/C | 94 % of control
Clc1cccc(N2CCN(c3c4c(nc5ccccc35)CCCCC4)CC2)c1 | L1210 leukemia ip in BDF1 mice, survival T/C | 88 % of control
Cc1cc(=O)c2cc(C(=O)c3ccccc3)ccc2[nH]1 | L1210 leukemia ip in BDF1 mice, survival T/C | 98 % of control
CCOC(=O)c1[nH]cnc1N | L1210 leukemia ip in BDF1 mice, survival T/C | 94 % of control

# input Please state recorded T/C (tested on L1210 leukemia ip in BDF1 mice, survival T/C) of `CC(C)c1nnnn1C12CC3CC(CC(C3)C1)C2`
# output 101 % of control

# input Requested read-out T/C, target or system L1210 leukemia ip in BDF1 mice, survival T/C, entry `[N-]=[N+]=CC(=O)NCC(=O)NN`
# output 110 % of control

# input Find T/C (L1210 leukemia ip in BDF1 mice, survival T/C) for the entry `S=P(NCCNP(=S)(N1CC1)N1CC1)(N1CC1)N1CC1`
# output 104 % of control

# input Report T/C for `Nc1[nH]c(=O)ncc1F` tested on L1210 leukemia ip in BDF1 mice, survival T/C.
# output 102 % of control

# input GET /values?readout=T/C&system=L1210 leukemia ip in BDF1 mice, survival T/C&item= COC1OC(COC(=O)c2ccc([N+](=O)[O-])cc2)C(OCc2ccccc2)C1OC(=O)c1ccc([N+](=O)[O-])cc1 (stereo not given)
# output 116 % of control

# input Value wanted: T/C (L1210 leukemia ip in BDF1 mice, survival T/C) of entry `O=C(Cc1cc2c(cc1[N+](=O)[O-])OCO2)c1c[nH]c2ccccc12`
# output 95 % of control

# input Form field: T/C recorded for CCCCC(=O)NCC(=O)N1CCCC1C(=O)NCCCCC(=O)OC (stereo not given) (Pentanoyl-Gly-[ξP]-[Ava]-OMe) with L1210 leukemia ip in BDF1 mice, survival T/C (enter value)
# output 95 % of control

----------
T/C for assorted molecules
System: L1210 leukemia ip in BDF1 mice, survival T/C
Test: NCI In Vivo Anticancer Drug Screen. Data for tumor model L1210 Leukemia (intraperitoneal) in B6D2F1 (BDF1) mice
Details: endpoint: mean survival time; dose: 200.0 mg/kg/injection; schedule: Q04DX003 (ip); vehicle: water; higher = longer survival
Protocol: The antitumor activity of compounds was measured in mice bearing transplantable tumors. Survival or tumor size were measured and the results are expressed as the measurement made in the treated group (T) divided by the measurement made in the vehicle treated control group (C). The tumor model used in this assay is L1210 Leukemia (intraperitoneal) in B6D2F1 (BDF1) mice
Toxic doses and inconclusive results are not listed.

MOLECULE | SYSTEM UNDER TEST | RECORDED VALUE
CC(=O)N1C=Cn2c(cnc2C)C1O (stereo not given) | L1210 leukemia ip in BDF1 mice, survival T/C | 102 % of control

# input Report T/C for `COc1ccc(C(C)=O)cc1OCc1ccccc1` please.
# output 100 % of control

# input Which T/C is reported for this molecule? CC(=O)OC/C=C(\C)CCC1OC1(C)C (stereo not given)
# output 112 % of control

# input Which T/C reading was recorded for the molecule `OCCSc1ncc2cnccn12` ?
# output 93 % of control

# input // returns reported T/C for input `Cc1[nH]c(=O)[nH]c(=O)c1NCCO`
# output 103 % of control

----------
Test system: L1210 leukemia ip in BDF1 mice, survival T/C
Assay: NCI In Vivo Anticancer Drug Screen. Data for tumor model L1210 Leukemia (intraperitoneal) in B6D2F1 (BDF1) mice
Conditions: endpoint: mean survival time; dose: 200.0 mg/kg/injection; schedule: Q04DX002 (ip); vehicle: gum acacia; higher = longer survival
Inconclusive results and toxic doses are left out.
Overview of reported T/C across a group of molecules:

Example results:
MOLECULE | SYSTEM UNDER TEST | T/C
C/C(=N\N=C(/C)c1ccccc1O)c1ccccc1O | L1210 leukemia ip in BDF1 mice, survival T/C | 93 % of control
O=C(Nc1cccc2ccccc12)c1ccc(C(=O)Nc2cccc3ccccc23)c(C(=O)O)c1 | L1210 leukemia ip in BDF1 mice, survival T/C | 94 % of control
Cc1cccnc1NC(=S)Nc1ccccc1Cl | L1210 leukemia ip in BDF1 mice, survival T/C | 98 % of control

# input Please give the measured T/C for this molecule: O=C1NC(c2cccs2)N2C(=O)NC(c3cccs3)N12 (centres undefined)
# output 109 % of control

----------
Here, each record is paired with measured T/C data.
Test system: L1210 leukemia ip in BDF1 mice, survival T/C
Assay: NCI In Vivo Anticancer Drug Screen. Data for tumor model L1210 Leukemia (intraperitoneal) in B6D2F1 (BDF1) mice
Details: endpoint: mean survival time; dose: 400.0 mg/kg/injection; schedule: Q04DX003 (ip); vehicle: saline with Tween-80; higher = longer survival
Procedure: The antitumor activity of compounds was measured in mice bearing transplantable tumors. Survival or tumor size were measured and the results are expressed as the measurement made in the treated group (T) divided by the measurement made in the vehicle treated control group (C). The tumor model used in this assay is L1210 Leukemia (intraperitoneal) in B6D2F1 (BDF1) mice
Toxic doses and inconclusive results are not listed.

Recorded results for 5 compounds are shown here.
COMPOUND | SYSTEM UNDER TEST | T/C
C=CCCCCn1c2ccccc2c2c(C)c3cnccc3c(C)c21 | L1210 leukemia ip in BDF1 mice, survival T/C | 92 % of control
CC1(C)C/C(=C\c2ccccc2)C(=O)c2ccccc21 | L1210 leukemia ip in BDF1 mice, survival T/C | 96 % of control
C=CC(=O)N1CCOCC1 | L1210 leukemia ip in BDF1 mice, survival T/C | 108 % of control
O=C(CCCCCCCCC(=O)N/N=C/c1ccccc1)N/N=C/c1ccccc1 | L1210 leukemia ip in BDF1 mice, survival T/C | 92 % of control
COc1ccc(OC)c2[nH]c(=O)c(-c3ccccc3)nc12 | L1210 leukemia ip in BDF1 mice, survival T/C | 91 % of control

# input Dear colleague, I am looking for the recorded T/C of the following compound: `O=C(O)c1ccccc1C(=O)c1ccccc1C(=O)O`
# output 102 % of control

# input # lookup: T/C of `COc1ccc(Br)cc1/C=N/N=C/c1cc(Br)ccc1OC`
# output 95 % of control
